target: hNav1.7 (Homo sapiens (Human)); assay: Tritiated sulfonamide competitive binding to membranes from cells expressing hNav1.7 and the β1 subunit; conditions: read-out: Ligand Binding Assay; 100 pM [3H]compound, membranes with hNav1.7 and β1 subunit, 18 h, room temperature;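 note: Filter-bound radioactivity counted by liquid scintillation, nonspecific binding defined with excess unlabelled ligand, IC50 fitted to percent inhibition of specific binding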
Sequence (Q15858 other isoform, or with tags, fused parts or gaps): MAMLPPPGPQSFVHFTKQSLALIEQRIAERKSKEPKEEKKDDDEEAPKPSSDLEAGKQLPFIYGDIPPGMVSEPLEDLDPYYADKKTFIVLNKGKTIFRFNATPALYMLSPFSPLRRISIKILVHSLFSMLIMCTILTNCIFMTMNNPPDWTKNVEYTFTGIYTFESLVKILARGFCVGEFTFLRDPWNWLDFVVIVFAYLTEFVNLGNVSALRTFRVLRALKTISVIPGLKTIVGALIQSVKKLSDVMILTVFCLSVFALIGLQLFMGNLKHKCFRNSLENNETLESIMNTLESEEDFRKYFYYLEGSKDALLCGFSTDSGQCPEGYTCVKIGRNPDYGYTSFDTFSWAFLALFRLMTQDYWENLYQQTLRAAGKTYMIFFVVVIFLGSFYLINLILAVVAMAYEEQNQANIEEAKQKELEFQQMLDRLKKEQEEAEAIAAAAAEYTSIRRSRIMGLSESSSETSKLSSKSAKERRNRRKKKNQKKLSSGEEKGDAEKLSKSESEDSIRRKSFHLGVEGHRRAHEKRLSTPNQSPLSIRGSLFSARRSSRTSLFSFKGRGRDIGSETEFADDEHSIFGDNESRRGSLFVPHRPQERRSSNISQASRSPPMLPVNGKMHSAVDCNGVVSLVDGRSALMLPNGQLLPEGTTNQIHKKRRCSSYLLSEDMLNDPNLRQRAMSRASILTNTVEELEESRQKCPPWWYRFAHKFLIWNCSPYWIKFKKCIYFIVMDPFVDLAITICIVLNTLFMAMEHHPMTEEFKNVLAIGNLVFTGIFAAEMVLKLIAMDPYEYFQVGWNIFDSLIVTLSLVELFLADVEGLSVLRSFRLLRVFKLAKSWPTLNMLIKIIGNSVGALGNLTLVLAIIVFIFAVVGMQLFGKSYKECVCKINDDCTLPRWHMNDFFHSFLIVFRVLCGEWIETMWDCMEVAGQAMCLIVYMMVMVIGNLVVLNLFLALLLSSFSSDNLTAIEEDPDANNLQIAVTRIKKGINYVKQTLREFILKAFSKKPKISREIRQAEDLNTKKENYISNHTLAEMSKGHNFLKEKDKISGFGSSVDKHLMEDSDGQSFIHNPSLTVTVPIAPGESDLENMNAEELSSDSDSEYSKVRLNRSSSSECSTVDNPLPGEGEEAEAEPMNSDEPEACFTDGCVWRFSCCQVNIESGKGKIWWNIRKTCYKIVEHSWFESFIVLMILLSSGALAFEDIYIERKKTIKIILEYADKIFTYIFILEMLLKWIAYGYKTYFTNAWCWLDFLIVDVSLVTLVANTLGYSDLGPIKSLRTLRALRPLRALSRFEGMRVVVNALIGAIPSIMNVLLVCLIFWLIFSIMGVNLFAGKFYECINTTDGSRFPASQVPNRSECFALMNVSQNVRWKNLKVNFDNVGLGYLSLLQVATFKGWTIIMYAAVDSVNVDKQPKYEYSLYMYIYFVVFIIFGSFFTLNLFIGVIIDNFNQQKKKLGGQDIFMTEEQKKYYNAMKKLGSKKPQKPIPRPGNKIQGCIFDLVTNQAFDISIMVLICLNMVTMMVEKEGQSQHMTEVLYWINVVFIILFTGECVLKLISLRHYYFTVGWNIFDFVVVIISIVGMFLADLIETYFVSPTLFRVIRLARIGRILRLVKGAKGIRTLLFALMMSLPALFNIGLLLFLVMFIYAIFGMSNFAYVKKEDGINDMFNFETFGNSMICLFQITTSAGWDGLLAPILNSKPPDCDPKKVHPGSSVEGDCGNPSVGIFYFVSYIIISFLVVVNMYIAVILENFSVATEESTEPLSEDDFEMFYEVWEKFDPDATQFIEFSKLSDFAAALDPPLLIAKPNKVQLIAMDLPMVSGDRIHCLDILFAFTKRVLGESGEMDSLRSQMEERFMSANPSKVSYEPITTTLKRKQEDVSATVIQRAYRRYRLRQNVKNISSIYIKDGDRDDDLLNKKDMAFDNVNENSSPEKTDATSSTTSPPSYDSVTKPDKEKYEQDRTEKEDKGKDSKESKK
Sequence (Q07699 19-218 partner): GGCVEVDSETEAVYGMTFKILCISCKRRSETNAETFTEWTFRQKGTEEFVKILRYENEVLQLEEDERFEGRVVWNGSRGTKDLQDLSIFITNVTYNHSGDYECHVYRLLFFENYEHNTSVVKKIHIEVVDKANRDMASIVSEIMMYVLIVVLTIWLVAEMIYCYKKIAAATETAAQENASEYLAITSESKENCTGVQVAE
Where a name gives a salt, the structure may show the parent alone.
experimental-endpoint: IC50 (µM)

Known results for compounds:
C[C@H](c1ccc(F)cc1Cl)N1C[C@H]2C[C@@H]1[C@H](Oc1cc(F)c(C(=O)NS(C)(=O)=O)cc1C1CC1)C2 [Example 451, trifluoroacetic acid salt]: 0.0257
CS(=O)(=O)NC(=O)c1cc(C2CC2)c(OCC2CCN(Cc3cc(F)cc(Cl)c3)CC2)cc1F: 0.006
CS(=O)(=O)NC(=O)c1cc(C2CC2)c(OC[C@@H]2CCCN(Cc3cc(Cl)cc(Cl)c3)C2)cc1F: 0.0071
CCOc1ccc(CN2CCC[C@@H](Oc3cc(F)c(C(=O)NS(C)(=O)=O)cc3C3CC3)C2)c(OCC)c1 [Example 428, trifluoroacetic acid salt]: 0.0234
COC[C@@H](c1ccccc1)N1CCC(COc2cc(F)c(C(=O)NS(C)(=O)=O)cc2C2CC2)CC1: 0.16
O=C(NS(=O)(=O)C1CC1)c1cc(C2CC2)c(OCC2CCN(S(=O)(=O)C3COC3)CC2)cc1F: 1.38
CS(=O)(=O)NC(=O)c1cc(C2CC2)c(OCC2CCN(c3ccccc3Cl)CC2)cc1F: 0.0052
O=C(NS(=O)(=O)C1CC1)c1cc(C2CC2)c(O[C@@H]2CCCN(c3ccc(F)cn3)C2)cc1F [Example 494, trifluoroacetic acid salt]: 0.0527
CS(=O)(=O)NC(=O)c1cc(C2CC2)c(OCC2CCN(Cc3ccc(F)cc3C(F)(F)F)CC2)cc1F: 0.0052
O=C(NS(=O)(=O)C1CC1)c1cc(C2CC2)c(OCC2CCN(S(=O)(=O)c3ccc(Br)c(F)c3)CC2)cc1F: 0.0145

(a) CC(C)Nc1ccc(F)cc1CN1CCC(COc2cc(F)c(C(=O)NS(=O)(=O)C3CC3)cc2C2CC2)CC1 [Example 356, trifluoroacetic acid salt]
(b) O=C(NS(=O)(=O)N1CCC1)c1cc(C2CC2)c(OCC2CCN(Cc3cc(C(F)(F)F)cc(Cl)c3F)CC2)cc1F
(c) CS(=O)(=O)NC(=O)c1cc(C2CC2)c(OCC2CCN(S(=O)(=O)c3ccc(C(F)(F)F)cc3Cl)CC2)cc1F
-- ask Please produce an ascending ranking of these compounds based on IC50. Please list the labels in the order you were asked to rank them.
-- reply b, a, c
(b: 0.0034 µM, a: 0.0058 µM, c: 0.0163 µM)
